tested on: MS2 coat protein; test: apparent KD of MS2 coat protein; designed switch direction (-1 OFF switch, 1 ON switch): -1; higher = weaker reporter binding; conditions: input ligand: FMN 200 uM
Quick reference for apparent KD of MS2 coat protein among some sequences
Quick note: give the figure in nM, leave out the unit.

Record excerpt, results attached:
Exercise: Name the recorded apparent KD of MS2 coat protein for UAAUUAAGUGUGAGGAUAUGCUGGUCCUUGGAUCAGCAGAAGGCACAUGAGGAUCACCCAUGUAAAUUAUUUAU [Mat - Exclusion 4 - JL Mod - D60] (Eterna round: R96, puzzle: Brourd's mod of Exclusion 4) .
Solution: 332

Exercise: Query AAAAGGCGAGGAUAUCCGGGCACGGACAUGAGGAUCACCCAUGUGACCUCGCCCGGCGGAGGAGAAGGCGCCGAAG [Biestein] (Eterna round: R97, puzzle: Exclusion 5) next
Solution: 368

Others:
Exercise: Need apparent KD of MS2 coat protein, item CGCUGGACAGGAUAUGUUCUUGGGCACUUGAGGAUCACCCAAGUCAUCAAGAACUCAGGCACAGAAGGGUUUAUGG [salish99_ex5_r4_018] (Eterna round: R97, puzzle: Exclusion 5)
Solution: 41.5

Exercise: Cool, now UUGUAACAUGAGGAUCACCCAUGUGAGGAUAUGGUUAAGUAAUGUAAUGUAAAGUAAUCCAGAAGGCACAUGUU [1st #24] (Eterna round: R97, puzzle: Exclusion 1)
Solution: 488

Source: the supplement of paper PMC9170038
